Experiment: CCTE_Shafer_MEA_acute_LDH: CCTE's Lactate Dehydrogenase Assay for Cytotoxicity in the Neural Acute Assay, Shafer Lab (AID 2284086);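 also: active means LDH release rises above DMSO vehicle level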
Procedure: CCTE_Shafer_MEA_acute assay is conducted using Axion Biosystems 48 well microelectrode array (MEA) plates and Maestro recording system. Each well of the MEA plate contains a grid of 16 microelectrodes embedded in the culture surface. Electrically active cells, such as neurons, can be cultured over the electrodes, and electrical activity in these cells can be recorded extracellularly. […]
Results filed as inconclusive are left out. The source made the active and inactive calls. The calls were made as follows: active = hit-call score of the fitted dose curve at least 0.9, where 1 is the maximum; inconclusive = response in the unintended direction; inactive = score below 0.9. Peptide text beside a SMILES is read from it.
REPORTED_METRIC: outcome

>  <COMPOUND>
Oc1ccccc1Cc1ccccc1O

>  <outcome>
inactive

$$$$
>  <COMPOUND>
Nc1cccc(N)n1

>  <outcome>
inactive

$$$$
>  <COMPOUND>
Cc1c(C(=O)c2c[nH]n(C)c2=O)ccc(S(C)(=O)=O)c1C1=NOCC1

>  <outcome>
inactive

$$$$
>  <COMPOUND>
CCCCCCCCCCCC(=O)N(C)CC(=O)O

>  <outcome>
inactive

$$$$
>  <COMPOUND>
COC(=O)[C@H](Cc1ccccc1)NC(=O)[C@@H](N)CC(=O)O (H-Asp-Phe-OMe)

>  <outcome>
inactive

$$$$
>  <COMPOUND>
c1ccc(Nc2cccc3ccccc23)cc1

>  <outcome>
inactive

$$$$

Next up:
Q: Which measured outcome value corresponds to CC/C=C\CCOC(=O)c1ccccc1O ?
Result: inactive

====

Read-out: Vascular cell adhesion molecule 1 (VCAM1), VCAM1 (gene 7412)
Test: BSK_hDFCGF_VCAM1: BioMAP Diversity Plus: hDFCGF Assay for Vascular cell adhesion molecule 1 (VCAM1) Biomarker Activity (AID 2283065);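 as to AC50: VCAM-1 protein level quantified by ELISA after 24 h chemical exposure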
Conditions: primary human foreskin fibroblasts; actives raise or lower the signal
Activity calls are given as the source filed them. Rule for the calls: active = hit-call score of the fitted dose curve at least 0.9, where 1 is the maximum; inactive = score below 0.9.
REPORTED_METRIC: AC50

# annotated cases, reported AC50 shown
>  <COMPOUND>
CCCCCCCCCCCC(C)=O

>  <RESULT>
inactive

$$$$
>  <COMPOUND>
CC=C(C)C=CC=C(C)C

>  <RESULT>
6.06 µM (active)

$$$$
>  <COMPOUND>
CCOC(=O)/C=C\C(=O)OCC

>  <RESULT>
inactive

$$$$
>  <COMPOUND>
CC/C=C\CCOC(=O)c1ccccc1O

>  <RESULT>
14.9 µM (active)

$$$$

Q: Which measured AC50 value corresponds to CC1(C)CC(O)CC(C)(C)N1[O] ?
Result: inactive

Q: What about this compound? CCCCCCC=O
Result: inactive

====

Read-out: Low-density lipoprotein receptor (LDLR), LDLR (gene 3949)
Experiment: BSK_CASM3C_LDLR: BioMAP Diversity Plus: CASM3C Assay for Low-density lipoprotein receptor (LDLR) Biomarker Activity (AID 2283045);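 also: LDLR protein level on the cell surface quantified by ELISA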
Conditions: primary human coronary artery smooth muscle cells; actives raise or lower the signal
The source made the active and inactive calls. Rule for the calls: active = hit-call score of the fitted dose curve at least 0.9, where 1 is the maximum; inactive = score below 0.9.
Assign a class; possible classes are t (active), f (inactive)

Past entries and their recorded results:
>  <COMPOUND>
c1ccc(Nc2cccc3ccccc23)cc1

>  <QUALITATIVE_LABEL>
f

$$$$
>  <COMPOUND>
O=C1CCCCCCCCCCCN1

>  <QUALITATIVE_LABEL>
f

$$$$
>  <COMPOUND>
Nc1nc(N)nc(-c2ccccc2)n1

>  <QUALITATIVE_LABEL>
f

$$$$

Q: Tell me the recorded outcome of this test for CC1(C)CC(O)CC(C)(C)N1[O] .
Result: f

Q: What about this compound? CCCCCCCCCCCC(C)=O
Result: f

Q: What about this compound? Clc1cc(Cl)c(Cl)c(Cl)c1Cl
Result: f

Q: What about this compound? Cc1ccc([N+](=O)[O-])cc1N
Result: f

Q: What about this compound? CCCCCC1=CCCC1=O
Result: f

====

Experiment: TOX21_p53_BLA_p4_viability: Viability Assessment in the Tox21 HCT-116 p53 Agonism Beta-lactamase Assay, Phase 4 (AID 2283597);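 also: hits lower the luminescence signal meaning cytotoxicity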
Text: TOX21_p53_BLA_p4 is a cell-based, single-readout assay that uses HCT116, a human intestinal cell line, […] in a 1536-well plate.TOX21_p53_BLA_p4_viability is an assay readout measuring cellular ATP content and detected with CellTiter-Glo Luciferase-coupled ATP quantitation.TOX21_p53_BLA_p4_viability used a type of viability reporter where loss-of-signal activity can be used to understand changes in the cell viability. […]
Inconclusive results are not listed. Active and inactive are the calls of the source. The calls were made as follows: active = hit-call score of the fitted dose curve at least 0.9, where 1 is the maximum; inconclusive = response in the unintended direction; inactive = score below 0.9.

>  <COMPOUND>
CCCC(C)C(=O)OCC (stereo not drawn)

>  <outcome>
inactive

$$$$
>  <COMPOUND>
C=CC(=O)OCCCCCCOC(=O)C=C

>  <outcome>
inactive

$$$$
>  <COMPOUND>
C/C=C/C=C/CCCCCCCO

>  <outcome>
inactive

$$$$

====

Target: Myc proto-oncogene protein (Homo sapiens) (UniProt P01106)
Sequence (P01106 whole entry, looked up): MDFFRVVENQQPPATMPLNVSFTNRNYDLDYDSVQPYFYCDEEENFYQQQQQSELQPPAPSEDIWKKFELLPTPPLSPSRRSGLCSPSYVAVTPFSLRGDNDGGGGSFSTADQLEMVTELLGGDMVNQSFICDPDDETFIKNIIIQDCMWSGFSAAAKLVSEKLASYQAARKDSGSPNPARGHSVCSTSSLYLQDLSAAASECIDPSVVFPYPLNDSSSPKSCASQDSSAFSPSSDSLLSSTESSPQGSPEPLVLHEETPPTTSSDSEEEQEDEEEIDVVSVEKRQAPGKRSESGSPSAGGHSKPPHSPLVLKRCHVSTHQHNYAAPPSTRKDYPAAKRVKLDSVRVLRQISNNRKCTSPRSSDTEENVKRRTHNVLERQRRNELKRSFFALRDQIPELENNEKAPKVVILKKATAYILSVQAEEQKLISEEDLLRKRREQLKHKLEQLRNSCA
Test: ATG_Myc_CIS: Attagene CIS-FACTORIAL HepG2 Assay for human Myelocytomatosis (Myc) Proto-Oncogene Transcription Factor (AID 2282990)
Settings: HepG2, Attagene cis-reporter transcription factor activity; actives raise or lower the signal
Activity calls are given as the source filed them. The calls were made as follows: active = hit-call score of the fitted dose curve at least 0.9, where 1 is the maximum; inactive = score below 0.9.
Assign a class; possible classes are 1.0 = active, 0.0 = inactive

>  <COMPOUND>
CC1(C)[C@@H]2CC[C@@]1(C)C(=O)C2

>  <QUALITATIVE_LABEL>
0.0

$$$$
>  <COMPOUND>
CCCCCCCOC(=O)c1ccc(O)cc1

>  <QUALITATIVE_LABEL>
0.0

$$$$
>  <COMPOUND>
CO[Si](C)(C)OC

>  <QUALITATIVE_LABEL>
1.0

$$$$
>  <COMPOUND>
C[Si]1(C)O[Si](C)(C)O[Si](C)(C)O[Si](C)(C)O[Si](C)(C)O1

>  <QUALITATIVE_LABEL>
0.0

$$$$
>  <COMPOUND>
CCN1CN(CC)CN(CC)C1

>  <QUALITATIVE_LABEL>
0.0

$$$$
>  <COMPOUND>
CCC[Si](OC)(OC)OC

>  <QUALITATIVE_LABEL>
0.0

$$$$
>  <COMPOUND>
Nc1ccc(Cl)c(N)c1

>  <QUALITATIVE_LABEL>
0.0

$$$$
>  <COMPOUND>
CO[Si](CCCS)(OC)OC

>  <QUALITATIVE_LABEL>
0.0

$$$$
>  <COMPOUND>
CC(C)(c1ccccc1)c1ccc(Nc2ccc(C(C)(C)c3ccccc3)cc2)cc1

>  <QUALITATIVE_LABEL>
0.0

$$$$
>  <COMPOUND>
Oc1ccc(-c2ccccc2)c(Cl)c1

>  <QUALITATIVE_LABEL>
0.0

$$$$

Q: Tell me the recorded outcome of this test for C=C1C[C@H]2[C@@H]3C=C(C)C4=CC(=O)CC[C@]4(C)[C@H]3CC[C@]2(C)[C@@]1(OC(C)=O)C(C)=O .
Result: 0.0

Q: What about this compound? C=C(C)OC(C)=O
Result: 0.0

Q: What about this compound? CC=CC(=O)OCC(C)C
Result: 0.0

Q: What about this compound? Clc1cc(Cl)c(Cl)c(Cl)c1Cl
Result: 0.0

Q: What about this compound? O=C1CCCCCCCCCCCN1
Result: 0.0

Q: What about this compound? Cc1c(O)cccc1O
Result: 0.0

Q: What about this compound? CCCCCC1=CCCC1=O
Result: 0.0

Q: What about this compound? CCCCNS(=O)(=O)c1ccc(C)cc1
Result: 0.0

====

Target: Paired box protein Pax-6 (Homo sapiens) (UniProt P26367)
Sequence (P26367 whole entry, looked up): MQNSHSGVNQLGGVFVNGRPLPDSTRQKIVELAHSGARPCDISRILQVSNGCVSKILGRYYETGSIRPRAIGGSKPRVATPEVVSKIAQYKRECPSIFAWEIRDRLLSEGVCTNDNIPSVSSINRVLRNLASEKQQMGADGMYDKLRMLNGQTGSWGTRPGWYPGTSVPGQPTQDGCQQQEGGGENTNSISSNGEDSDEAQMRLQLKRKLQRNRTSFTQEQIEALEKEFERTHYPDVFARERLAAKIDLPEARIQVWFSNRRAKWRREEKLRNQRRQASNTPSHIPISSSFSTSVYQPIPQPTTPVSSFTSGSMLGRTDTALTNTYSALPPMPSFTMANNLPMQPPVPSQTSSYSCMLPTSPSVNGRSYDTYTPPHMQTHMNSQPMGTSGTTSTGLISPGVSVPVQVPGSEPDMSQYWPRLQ
Assay: ATG_Pax6_CIS: Attagene CIS-FACTORIAL HepG2 Assay for human Paired Box 6 (PAX6) (AID 2282956)
Settings: HepG2 CIS-FACTORIAL PAX6 reporter transcription, RNA readout; actives raise or lower the signal
Method: ATG_CIS is a cell-based, multiplexed-readout assay that uses HepG2, a human liver cell line, with measurements taken at 24 hours after chemical dosing in a 24-well plate.ATG_Pax6_CIS is one of 52 assay component(s) measured or calculated from the ATG_CIS assay. […] This assay endpoint, ATG_Pax6_CIS, was analyzed with bidirectional fitting relative to DMSO as the negative control and baseline of activity. […]
Activity calls are given as the source filed them. The calls were made as follows: active = hit-call score of the fitted dose curve at least 0.9, where 1 is the maximum; inactive = score below 0.9.
REPORTED_METRIC: outcome

>  <MOLECULE>
C=Cc1cccc(C)c1

>  <outcome>
inactive

$$$$
>  <MOLECULE>
CC(=O)c1ccccc1O

>  <outcome>
inactive

$$$$
>  <MOLECULE>
CCCCC(CC)COC(=O)/C=C/c1ccc(OC)cc1 (stereo not drawn)

>  <outcome>
inactive

$$$$
>  <MOLECULE>
CC(=O)OC1CCCCC1C(C)(C)C (stereo not drawn)

>  <outcome>
inactive

$$$$
>  <MOLECULE>
CN(C)c1ccc2nc3ccc(=[N+](C)C)cc-3sc2c1

>  <outcome>
inactive

$$$$
>  <MOLECULE>
c1ccc2c(c1)[nH]c1ccccc12

>  <outcome>
inactive

$$$$
>  <MOLECULE>
Cc1ccccc1CCO

>  <outcome>
inactive

$$$$

Next up:
Q: Which measured outcome value corresponds to CC(=O)CCC1=C(C)CCCC1(C)C ?
Result: inactive
